Test system: RXF 393 renal
Assay: NCI tumour cell line growth inhibition, 48 h; in the data active = GI50 below about 0.43 µM; inactive = the rest
Lab note: assign the record to one of active, inactive

q: Assay outcome for Cc1cc2c(C(C)C)c(O)c(O)c(C=O)c2c(O)c1-c1c(C)cc2c(C(C)C)c(O)c(O)c(C=O)c2c1O (tested in a mixture with another compound) : what was it?
a: inactive

q: Assay outcome for CCN1C(=O)N(CC)C2C1NN=c1s/c(=C\c3ccccc3)c(=O)n12 (stereo unspecified) : what was it?
a: active

q: Assay outcome for Cc1cc2nc3c4ccccc4n(CCN(C)C)c3nc2cc1C : what was it?
a: inactive

q: Assay outcome for CN(C)CCOc1nc2ccccc2c2c1-c1ccc(Cl)cc1C2=O : what was it?
a: inactive

q: Assay outcome for O=[N+]([O-])c1ccc(-c2ccccc2)c([As](=O)(O)O)c1 : what was it?
a: inactive

q: Assay outcome for O=C(NO)c1cnc(N2CCN(S(=O)(=O)c3ccc4ccccc4c3)CC2)nc1 : what was it?
a: active
